assay-target: human recombinant cytochrome P450 2C9 (Homo sapiens)
assay-comment: Biological Test Example 7: CYP2C9 inhibition ([O-methyl-14C]-Naproxen O-demethylation)
assay-readout: pIC50
One number for each entry, as −log10 of the molar value.

Below are worked cases with known answers.
compound="C[C@@H](c1ccc(-c2ccc(=O)n(CC(F)(F)F)c2)cc1)N1CC[C@](CC(C)(C)O)(c2ccccc2)OC1=O [Example 67]" reported_measurement=4.39
compound="C[C@@H](c1ccc(-c2ccn(CC(F)(F)F)c(=O)c2)cc1)N1CC[C@](CC(C)(C)O)(c2ccccc2)OC1=O [Example 66]" reported_measurement=5.00
compound="CC[C@@H](c1ccc(-c2ccn(C)c(=O)c2)cc1)N1CC[C@](CC(C)(C)O)(c2ccccc2)OC1=O [Example 55]" reported_measurement=4.54

Task: Fill in: pIC50 of C[C@@H](c1ccc(-c2ccc(=O)n(C)c2)cc1)N1CC[C@](CC(C)(C)O)(c2ccccc2)OC1=O [Example 37] is ___
Output: 4.37

----------
assay-target: CYP2C9 (Homo sapiens)
assay-comment: Biological Test Example 9: CYP2C9 inhibition (Invitrogen kit, fluorogenic substrate OOMR)
Format: in vitro ADME
I'd appreciate it if you marked entries Met when IC50 is lower than 20 µM and Not met when it is not.

Below are worked cases with known answers.
smiles_record=CCn1cc(-c2ccc([C@H](C)N3CC[C@](CCCO)(c4ccccc4)OC3=O)cc2)ccc1=O label=Met
smiles_record=C[C@@H](c1ccc(-c2ccn(C)c(=O)c2)cc1)N1CC[C@](CC(C)(C)C#N)(c2ccccc2)OC1=O label=Met
smiles_record=CC[C@@H](c1ccc(-c2ccc(=O)n(C)c2)cc1)N1CC[C@](CCO)(c2ccccc2)OC1=O label="Not met"
smiles_record=C[C@@H](c1ccc(-c2ccc(=O)n(C)c2)cc1)N1CC[C@](CC(C)(C)O)(c2ccccc2)OC1=O label="Not met"

Now consider a different compound.
Task: # TODO verify IC50 < 20 µM strictly for this compound: "CC[C@@H](c1ccc(-c2ccn(C)c(=O)c2)cc1)N1CC[C@](CC(C)(C)O)(c2ccccc2)OC1=O"
Output: Not met

----------
assay-target: human recombinant cytochrome P450 2C9 (Homo sapiens, UniProt P11712)
Sequence (P11712 whole entry): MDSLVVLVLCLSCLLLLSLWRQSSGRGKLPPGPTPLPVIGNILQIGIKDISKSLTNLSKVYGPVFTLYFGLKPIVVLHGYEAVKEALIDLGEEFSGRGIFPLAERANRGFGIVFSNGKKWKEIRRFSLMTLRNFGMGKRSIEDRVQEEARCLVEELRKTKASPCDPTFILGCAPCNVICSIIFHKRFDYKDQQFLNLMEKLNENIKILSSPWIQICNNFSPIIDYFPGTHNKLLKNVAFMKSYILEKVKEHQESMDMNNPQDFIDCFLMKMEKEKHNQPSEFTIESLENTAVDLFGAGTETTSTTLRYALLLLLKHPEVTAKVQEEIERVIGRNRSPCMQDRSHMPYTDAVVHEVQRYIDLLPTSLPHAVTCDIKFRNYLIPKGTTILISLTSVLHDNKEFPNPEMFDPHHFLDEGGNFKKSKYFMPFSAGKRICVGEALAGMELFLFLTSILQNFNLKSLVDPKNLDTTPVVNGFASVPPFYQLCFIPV
assay-comment: Biological Test Example 7: CYP2C9 inhibition ([O-methyl-14C]-Naproxen O-demethylation)
assay-readout: IC50 (µM)
One number for each entry, in µM.

Please look at the items below and tell me IC50 for each one, in order.
1. C[C@@H](c1ccc(-c2ccc(=O)n(C(F)F)c2)cc1)N1CC[C@](CC(C)(C)O)(c2ccccc2)OC1=O
2. C[C@@H](c1ccc(-c2ccn(C)c(=O)c2)cc1)N1CC[C@](CC(C)(C)C#N)(c2ccccc2)OC1=O
3. C[C@@H](c1ccc(-c2cc[nH]c(=O)c2)cc1)N1CC[C@](CC(C)(C)C#N)(c2ccccc2)OC1=O
4. Cc1cc(-c2ccc([C@H](C)N3CC[C@](CC(C)(C)O)(c4ccccc4)OC3=O)cc2)cc(=O)n1C

Output:
1. 17
2. 11
3. 18
4. 33

----------
assay-target: CYP2C9 (Homo sapiens, UniProt P11712)
assay-comment: Biological Test Example 9: CYP2C9 inhibition (Invitrogen kit, fluorogenic substrate OOMR)
Format: in vitro ADME
cond: Invitrogen kit, fluorogenic substrate OOMR
assay-readout: IC50 (µM)
Give bare numbers, in µM.

Below are worked cases with known answers.
compound="C[C@@H](c1ccc(-c2ccc(=O)n(C)c2)cc1)N1CC[C@](CCCO)(c2ccc(F)cc2)OC1=O [Example 33]" result_unit=µM reported_measurement=24.6
compound="C[C@@H](c1ccc(-c2ccc(=O)[nH]c2)cc1)N1CC[C@](CCCO)(c2ccccc2)OC1=O [Example 29]" result_unit=µM reported_measurement=7.5
compound="C[C@@H](c1ccc(-c2ccc(=O)n(C)c2)cc1)N1CC[C@](CC(C)(C)C#N)(c2ccccc2)OC1=O [Example 49]" result_unit=µM reported_measurement=14.8
compound="C[C@@H](c1ccc(-c2ccc(=O)n(C)c2)cc1)N1CC[C@](CC(C)(C)O)(c2ccc(F)cc2)OC1=O [Example 32]" result_unit=µM reported_measurement=28.7
compound="C[C@@H](c1ccc(-c2ccc(=O)n(C)c2)cc1)N1CC[C@](CC(C)(C)N(C)S(C)(=O)=O)(c2ccccc2)OC1=O [Example 12]" result_unit=µM reported_measurement=12.1

Please find the next compound below.
Task: Value wanted: IC50 (CYP2C9 (Homo sapiens, UniProt P11712)) of entry C[C@@H](c1ccc(-c2ccn(C)c(=O)c2)cc1)N1CC[C@](CCCO)(c2ccccc2)OC1=O [Example 47]
Output: 12.1

----------
assay-target: human recombinant cytochrome P450 2C19 (Homo sapiens)
Sequence (P33261 whole entry): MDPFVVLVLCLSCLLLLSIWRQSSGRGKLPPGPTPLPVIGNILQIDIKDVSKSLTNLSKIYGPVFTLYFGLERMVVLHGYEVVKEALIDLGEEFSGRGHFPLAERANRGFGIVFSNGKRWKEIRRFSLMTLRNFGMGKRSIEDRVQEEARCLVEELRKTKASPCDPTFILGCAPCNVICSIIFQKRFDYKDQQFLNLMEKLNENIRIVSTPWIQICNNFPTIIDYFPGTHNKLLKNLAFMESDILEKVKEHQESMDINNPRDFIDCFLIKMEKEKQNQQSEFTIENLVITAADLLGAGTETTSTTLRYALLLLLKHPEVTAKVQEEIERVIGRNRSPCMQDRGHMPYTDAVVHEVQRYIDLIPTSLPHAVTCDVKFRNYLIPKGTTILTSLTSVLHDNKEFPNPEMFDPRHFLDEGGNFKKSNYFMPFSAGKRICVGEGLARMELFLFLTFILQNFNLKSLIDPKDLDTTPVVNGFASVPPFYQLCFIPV
assay-comment: Biological Test Example 8: CYP2C19 inhibition ([N-methyl-14C]-Diazepam N-demethylation)
I'd appreciate it if you marked entries true (1) when IC50 is lower than 20 µM and false (0) when it is not.

Below are worked cases with known answers.
molecule="C[C@@H](c1ccc(-c2ccn(C)c(=O)c2)cc1)N1CC[C@](CC(C)(C)C#N)(c2ccccc2)OC1=O [Example 50]" label="false (0)"
molecule="Cc1cc(-c2ccc([C@H](C)N3CC[C@](CC(C)(C)O)(c4ccccc4)OC3=O)cc2)cc(=O)n1C [Example 64]" label="true (1)"
molecule="CCn1cc(-c2ccc([C@H](C)N3CC[C@](CC(C)(C)O)(c4ccccc4)OC3=O)cc2)cc(C)c1=O [Example 70]" label="false (0)"

Now consider a different molecule.
Task: # TODO verify IC50 < 20 µM strictly for this molecule: CC[C@@H](c1ccc(-c2ccn(C)c(=O)c2)cc1)N1CC[C@](CC)(c2ccccc2)OC1=O [Example 58]
Output: true (1)

----------
Task for the reader: assign each of the following molecules its reported pIC50.
assay-target: human recombinant cytochrome P450 3A4 (Homo sapiens)
Sequence (P08684 whole entry): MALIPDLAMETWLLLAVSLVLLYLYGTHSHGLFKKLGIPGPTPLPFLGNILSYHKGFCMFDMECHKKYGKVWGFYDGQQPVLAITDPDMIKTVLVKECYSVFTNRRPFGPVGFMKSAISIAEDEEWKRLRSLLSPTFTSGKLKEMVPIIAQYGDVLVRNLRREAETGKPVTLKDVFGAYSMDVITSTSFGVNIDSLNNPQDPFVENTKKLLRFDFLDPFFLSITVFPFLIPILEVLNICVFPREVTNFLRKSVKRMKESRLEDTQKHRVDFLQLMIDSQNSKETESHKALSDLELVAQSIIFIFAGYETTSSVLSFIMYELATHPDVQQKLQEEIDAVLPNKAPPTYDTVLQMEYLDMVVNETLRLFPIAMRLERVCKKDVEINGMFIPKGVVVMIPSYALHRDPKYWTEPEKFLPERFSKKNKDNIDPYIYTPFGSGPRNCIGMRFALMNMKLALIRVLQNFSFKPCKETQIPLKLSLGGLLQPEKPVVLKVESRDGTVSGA
Give bare numbers, as −log10 of the molar value.

Below are worked cases with known answers.
smiles_record=CC[C@@H](c1ccc(-c2ccn(C)c(=O)c2)cc1)N1CC[C@](CC)(c2ccccc2)OC1=O assay_readout=pIC50 reported_measurement=5.10
smiles_record=C[C@@H](c1ccc(-c2ccc(=O)n(C)c2)cc1)N1CC[C@](CC(C)(C)O)(c2ccccc2)OC1=O assay_readout=pIC50 reported_measurement=4.32
smiles_record=C[C@@H](c1ccc(-c2ccc(=O)[nH]c2)cc1)N1CC[C@](CC(C)(C)C#N)(c2ccccc2)OC1=O assay_readout=pIC50 reported_measurement=5.22
smiles_record=C[C@@H](c1ccc(-c2ccc(=O)n(CC3CC3)c2)cc1)N1CC[C@](CC(C)(C)O)(c2ccccc2)OC1=O assay_readout=pIC50 reported_measurement=5.00
smiles_record=CC(C)n1ccc(-c2ccc([C@H](C)N3CC[C@](CC(C)(C)O)(c4ccccc4)OC3=O)cc2)cc1=O assay_readout=pIC50 reported_measurement=4.37
smiles_record=C[C@@H](c1ccc(-c2ccn(CCF)c(=O)c2)cc1)N1CC[C@](CC(C)(C)O)(c2ccccc2)OC1=O assay_readout=pIC50 reported_measurement=4.48

Please look at the items below and tell me pIC50 for each one, in order.
1. C[C@@H](c1ccc(-c2ccn(C(F)F)c(=O)c2)cc1)N1CC[C@](CC(C)(C)O)(c2ccccc2)OC1=O
2. CCn1c(C)cc(-c2ccc([C@H](C)N3CC[C@](CC(C)(C)O)(c4ccccc4)OC3=O)cc2)cc1=O
3. C[C@@H](c1ccc(-c2ccc(=O)n(C)c2)cc1)N1CC[C@](CC(C)(C)C#N)(c2ccccc2)OC1=O
4. C[C@@H](c1ccc(-c2ccn(CC(F)(F)F)c(=O)c2)cc1)N1CC[C@](CC(C)(C)O)(c2ccccc2)OC1=O

Output:
[4.54, 4.39, 4.49, 4.74]

----------
Task for the reader: assign each of the following compounds its reported pIC50.
assay-target: human recombinant cytochrome P450 2C19 (Homo sapiens)
assay-comment: Biological Test Example 8: CYP2C19 inhibition ([N-methyl-14C]-Diazepam N-demethylation)
Give bare numbers, as −log10 of the molar value.

Please look at the items below and tell me pIC50 for each one, in order.
1. C[C@@H](c1ccc(-c2ccc(=O)n(C)c2)cc1)N1CC[C@](CCCO)(c2ccc(F)cc2)OC1=O
2. CCn1cc(-c2ccc([C@H](C)N3CC[C@](CC(C)(C)O)(c4ccc(F)cc4)OC3=O)cc2)ccc1=O
3. C[C@@H](c1ccc(-c2ccn(CC(C)(C)O)c(=O)c2)cc1)N1CC[C@](CC(C)(C)O)(c2ccccc2)OC1=O

Output:
4.77
4.42
4.42
